Target: COX-2 (Ovis aries)
Construct: purchased Cayman Chemical Company
Sequence (P79208 17-603): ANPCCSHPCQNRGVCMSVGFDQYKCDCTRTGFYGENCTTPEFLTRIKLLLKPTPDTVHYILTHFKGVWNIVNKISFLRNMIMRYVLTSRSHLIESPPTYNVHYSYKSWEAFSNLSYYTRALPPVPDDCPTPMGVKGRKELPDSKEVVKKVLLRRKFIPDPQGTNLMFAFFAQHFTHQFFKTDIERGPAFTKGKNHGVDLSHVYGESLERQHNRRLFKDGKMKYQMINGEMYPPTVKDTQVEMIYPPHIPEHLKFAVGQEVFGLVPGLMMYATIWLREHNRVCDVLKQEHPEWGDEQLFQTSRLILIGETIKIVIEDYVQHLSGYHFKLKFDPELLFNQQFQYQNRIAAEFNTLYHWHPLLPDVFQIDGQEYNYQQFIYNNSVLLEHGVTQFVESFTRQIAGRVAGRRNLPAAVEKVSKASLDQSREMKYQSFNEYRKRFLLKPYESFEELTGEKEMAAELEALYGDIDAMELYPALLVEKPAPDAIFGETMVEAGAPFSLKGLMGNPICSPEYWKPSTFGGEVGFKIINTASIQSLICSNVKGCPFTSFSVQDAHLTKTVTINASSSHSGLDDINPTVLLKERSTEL
Assay: Colorimetric COX inhibitor screening assay, COX-2
Assay type: biochemical, ovine
Conditions: IC50, COX-2 inhibition, purified ovine COX-2; molar value in brackets
Metric Name: IC50 (µM)
Your answer is read as µM, so omit the unit and give the number.

Query: Indicate its recorded IC50; the molecule in question is CC1=CC(=O)C2=C(C)C[C@H](O)[C@@H]3[C@H](OC(=O)[C@H]3C)[C@@H]12 (single isomer, unassigned) [austricin]
Response: 2000
